System: isotype control IgM
PROTOCOL_SUMMARY: Phage ELISA, binding of phage clones to isotype control IgM
ASSAY_CONTEXT: Table 2A, Ph.D.-12 library clones; 10^10 pfu/ml; OD 405-490 nm
# Lookup of reported Binding of phages to control IgM keyed by entry
QUANTITY: Binding of phages to control IgM (OD)

> print(dat)
                  residue.string      target.of.assay  unit.abbreviation  numeric.readout
 1         HRLTNSEQAALP [M3, M5]  isotype control IgM                 OD             0.03
 2            ASISNLTLSRFM [M15]  isotype control IgM                 OD             0.04
 3            HQLSNKDEQTPQ [A33]  isotype control IgM                 OD             0.05
 4            NSRTNNSQWTFQ [A34]  isotype control IgM                 OD             0.11
 5             ADPFSPTNRIPL [M7]  isotype control IgM                 OD             0.03
 6        HRMTNNAMDVFM [M6, G10]  isotype control IgM                 OD             0.03
 7            NSWTNASLSTFH [A40]  isotype control IgM                 OD             0.04
 8            EVMNNWTLASIM [M30]  isotype control IgM                 OD             0.03
 9            HRMTNAMHHFMG [A38]  isotype control IgM                 OD             0.21
10  ESWTNSWAHYFG [A36, B41, M35]  isotype control IgM                 OD             0.03
11             TAVTNSMMERLW [M8]  isotype control IgM                 OD             0.04
12            HSWSNYWGHQHA [A32]  isotype control IgM                 OD             0.02
13            QNMNNWTLASIM [A31]  isotype control IgM                 OD             0.08
14        HSLSNIQMATLA [M10, G8]  isotype control IgM                 OD             0.03
15            HSLTNTQMTQLS [M31]  isotype control IgM                 OD             0.03
16            QSYTNDDVLRIS [M19]  isotype control IgM                 OD             0.03
17             HRISNYAMELHS [G4]  isotype control IgM                 OD             0.04
18            ESWNTNSWAMYFG [M2]  isotype control IgM                 OD             0.03
19            GWGNKTPSQDVH [A39]  isotype control IgM                 OD             0.05

Just for reference, patent US20150056209A1 is where these values come from.
